Origin of the recorded values: patent US20130273029A1

# test-target: Human HER3, endogenous, on human cancer cell lines (SK-Br-3, MCF7, BT-474) (human, UniProt P21860 20-1342)
# Sequence (P21860 20-1342): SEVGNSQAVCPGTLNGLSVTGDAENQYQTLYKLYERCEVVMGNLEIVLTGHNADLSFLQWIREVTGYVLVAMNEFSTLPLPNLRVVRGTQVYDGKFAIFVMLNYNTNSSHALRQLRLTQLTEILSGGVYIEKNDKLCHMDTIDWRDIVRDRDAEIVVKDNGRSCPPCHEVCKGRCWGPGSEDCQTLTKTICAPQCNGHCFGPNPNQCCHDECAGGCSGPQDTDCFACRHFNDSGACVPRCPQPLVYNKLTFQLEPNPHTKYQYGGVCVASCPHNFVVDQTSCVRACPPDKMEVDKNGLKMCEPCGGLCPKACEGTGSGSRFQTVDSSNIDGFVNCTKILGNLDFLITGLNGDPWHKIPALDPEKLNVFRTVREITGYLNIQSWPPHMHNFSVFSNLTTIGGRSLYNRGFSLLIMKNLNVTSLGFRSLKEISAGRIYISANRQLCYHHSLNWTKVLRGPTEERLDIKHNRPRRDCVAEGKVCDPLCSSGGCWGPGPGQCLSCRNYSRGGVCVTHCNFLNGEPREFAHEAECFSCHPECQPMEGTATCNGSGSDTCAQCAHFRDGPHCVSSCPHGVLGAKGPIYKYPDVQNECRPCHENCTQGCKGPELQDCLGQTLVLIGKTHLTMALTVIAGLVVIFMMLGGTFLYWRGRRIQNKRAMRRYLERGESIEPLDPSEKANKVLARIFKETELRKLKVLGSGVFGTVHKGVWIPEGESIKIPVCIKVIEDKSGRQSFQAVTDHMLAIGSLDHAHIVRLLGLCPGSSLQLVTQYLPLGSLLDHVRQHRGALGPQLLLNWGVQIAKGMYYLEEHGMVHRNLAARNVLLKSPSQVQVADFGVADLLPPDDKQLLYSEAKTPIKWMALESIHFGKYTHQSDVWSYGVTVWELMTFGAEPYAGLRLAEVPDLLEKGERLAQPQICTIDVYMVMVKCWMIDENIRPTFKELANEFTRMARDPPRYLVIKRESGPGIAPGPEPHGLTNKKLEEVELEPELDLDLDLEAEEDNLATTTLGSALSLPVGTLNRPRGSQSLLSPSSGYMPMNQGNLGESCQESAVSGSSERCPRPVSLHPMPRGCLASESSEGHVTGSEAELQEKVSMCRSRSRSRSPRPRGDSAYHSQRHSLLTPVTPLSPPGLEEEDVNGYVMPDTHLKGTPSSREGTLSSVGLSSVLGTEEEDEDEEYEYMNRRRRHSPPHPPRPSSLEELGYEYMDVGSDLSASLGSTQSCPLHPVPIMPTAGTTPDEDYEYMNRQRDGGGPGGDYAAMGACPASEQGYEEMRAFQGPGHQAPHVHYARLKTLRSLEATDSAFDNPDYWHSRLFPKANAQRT
# test-details: cell-based or functional assay
Readings of MCF7 proliferation % inhibition for the listed binders
Please give a number only; it is taken to be in %.

Request: Please look up its MCF7 proliferation % inhibition: MOR13871 (antibody, human IgG1, kappa, V domains shown, tested as IgG) VH: QVQLVQSGAEVKKPGESLKISCKGSGYSFSNYWIAWVRQMPGKGLEWMGIIYPGSSDTIYSPSFQGQVTISADKSISTAYLQWSSLKASDTAMYYCARVHIIQPPSAWSYNAMDVWGQGTLVTVSS VL: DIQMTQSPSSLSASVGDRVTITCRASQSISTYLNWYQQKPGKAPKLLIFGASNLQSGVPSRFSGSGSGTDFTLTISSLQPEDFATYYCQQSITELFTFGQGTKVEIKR
Response: 58

Request: And the next one, MOR12923 (antibody, human IgG1, kappa, V domains shown) VH: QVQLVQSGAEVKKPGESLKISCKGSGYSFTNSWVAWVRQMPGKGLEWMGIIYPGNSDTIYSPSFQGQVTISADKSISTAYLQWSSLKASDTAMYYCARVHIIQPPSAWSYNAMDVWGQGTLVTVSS VL: DIQMTQSPSSLSASVGDRVTITCRASQSISTYLNWYQQKPGKAPKLLIFGASNLQSGVPSRFSGSGSGTDFTLTISSLQPEDFATYYCQQSMYLPFTFGQGTKVEIKR ?
Response: 29

Below: the item to evaluate.
Request: Item MOR13768 (antibody, human IgG1, kappa, V domains shown, tested as IgG) VH: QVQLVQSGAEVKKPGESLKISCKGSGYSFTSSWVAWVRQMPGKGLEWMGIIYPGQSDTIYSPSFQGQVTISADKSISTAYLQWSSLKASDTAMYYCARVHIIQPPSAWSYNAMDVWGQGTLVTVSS VL: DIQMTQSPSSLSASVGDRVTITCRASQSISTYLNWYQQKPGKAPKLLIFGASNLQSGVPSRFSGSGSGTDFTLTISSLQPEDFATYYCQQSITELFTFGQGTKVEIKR has what recorded MCF7 proliferation % inhibition?
Response: 58
